- Tested on: EKVX NSCLC
- Experimental Protocol: NCI tumour cell line growth inhibition, 48 h; in the data active = GI50 below about 0.43 µM; inactive = the rest
Outcomes you can answer with include only these: true = active, false = inactive

# outcome recorded in this test, key = N#CC(C#N)=C/C=C(\Cl)c1ccc(Cl)cc1
false

# outcome recorded in this test, key = CC(=O)c1c(C(F)(F)F)n([O-])c2ccccc2[n+]1=O
false

# outcome recorded in this test, key = Oc1cccc(Nc2nc3ccccc3c3occc23)c1
false

# outcome recorded in this test, key = Cc1c2cnccc2c(C)c2c1c1cc(C#N)ccc1n2C
true

# outcome recorded in this test, key = O=C(c1ccc2ccccc2c1)c1c(C(F)(F)F)n([O-])c2ccc(C(F)(F)F)cc2[n+]1=O
false

# outcome recorded in this test, key = CC1CC(C)CC(C)C(O)/C(C#N)=C/C=C/CC(C2CCCC2C(=O)O)OC(=O)CC(O)C(C)C1 (stereo unspecified)
true

====

- Tested on: SK-MEL-2 melanoma
- Experimental Protocol: NCI tumour cell line growth inhibition, 48 h
Exercise: for every item that follows, state its recorded TGI.
Report as a plain number; the unit µM is understood.

Name the reported TGI value associated with the molecule CCC1(O)C(=O)OCc2c1cc1n(c2=O)Cc2cc3ccccc3nc2-1 (stereo unspecified)
3.52

Name the reported TGI value associated with the molecule CC12CCC(CC(=O)/C1=C(/Br)I)C2(C)C (stereo unspecified)
30.3

Name the reported TGI value associated with the molecule Oc1cccc(Nc2nc3ccccc3c3occc23)c1
27.7

Name the reported TGI value associated with the molecule Cc1ccc(C)c(NC(=O)C(=O)C(C(=O)c2ccc3ccccc3c2)C2OC(=O)c3ccccc32)c1 (stereo unspecified)
44.7

Name the reported TGI value associated with the molecule COc1cccc(-c2nc3cc(NC(=O)c4ccc(Cl)c(C#N)c4)ccc3o2)c1
74.2

Name the reported TGI value associated with the molecule C=CCSC1=N/C(=C\c2ccc(Cl)cc2)C(=O)N1CC=C
76

====

- Tested on: SF-539 CNS
- Experimental Protocol: NCI tumour cell line growth inhibition, 48 h; in the data active = GI50 below about 0.43 µM; inactive = the rest
Outcomes you can answer with include only these: YES = active, NO = inactive

# outcome recorded in this test, key = CC1CC(C)CC(C)C(O)/C(C#N)=C/C=C/CC(C2CCCC2C(=O)O)OC(=O)CC(O)C(C)C1 (centres undefined)
YES

# outcome recorded in this test, key = CCOc1ccccc1CCN=C1NC(=O)/C(=C/c2ccc3ncccc3c2)S1
NO

# outcome recorded in this test, key = CC1=C([Se]CC(OC(=O)CC[Se]c2ccccc2)C(=O)NC(C)(C)C)C(=O)c2ccccc2C1=O (centres undefined)
NO

# outcome recorded in this test, key = CCN1C(=O)N(CC)C2C1NN=c1s/c(=C\c3ccc(Cl)cc3Cl)c(=O)n12 (centres undefined)
YES

# outcome recorded in this test, key = C=C1CCC2C3(C)COC(C)(C)OC3CCC2(C)C1C/C=C1/C(=O)OCC1OC(C)=O (centres undefined)
NO

# outcome recorded in this test, key = Cc1c2cnccc2c(C)c2c1c1cc(C#N)ccc1n2C
YES

# outcome recorded in this test, key = c1ccc(C2ONC3=NCCN32)cc1 (centres undefined)
NO

# outcome recorded in this test, key = Oc1cccc(Nc2nc3ccccc3c3occc23)c1
NO

# outcome recorded in this test, key = O=C(c1ccc2ccccc2c1)c1c(C(F)(F)F)n([O-])c2ccc(C(F)(F)F)cc2[n+]1=O
NO

# outcome recorded in this test, key = COc1ccc(C2=Nn3c(nnc3-c3cc(Cl)cc(Cl)c3Cl)SC2)cc1
YES

# outcome recorded in this test, key = Cc1ccc2cnc(N)c(C#Cc3cc(C(=O)Nc4ccc(CN5CCN(C)CC5)c(C(F)(F)F)c4)cnc3C)c2c1
NO

# outcome recorded in this test, key = N#C[Se]Cc1cc(-c2ccccc2)n(-c2ccc(S(N)(=O)=O)cc2)n1
NO

# outcome recorded in this test, key = COc1cc(C)ccc1C(=O)c1ccc(C)cc1OC
NO

# outcome recorded in this test, key = COc1ccc2c(c1)C(=O)/C(=C/c1cccc(OCC(=O)c3ccccc3)c1)CC2
NO

# outcome recorded in this test, key = COc1ccc(-c2noc(C(=O)O)c2-c2cc(OC)c(OC)c(OC)c2)cc1
NO

# outcome recorded in this test, key = O=C1OCC2=C1C(c1cccc(F)c1)c1cc3c(cc1N2CCO)OCO3 (centres undefined)
NO

# outcome recorded in this test, key = COc1cccc(-c2nc3cc(NC(=O)c4ccc(Cl)c(C#N)c4)ccc3o2)c1
NO

# outcome recorded in this test, key = c1ccc(-c2nc(-c3ccccn3)nc(-c3ccccn3)n2)nc1
NO

# outcome recorded in this test, key = CC(=O)c1c(C(F)(F)F)n([O-])c2ccccc2[n+]1=O
NO
